Data provenance: patent US7223769B2

- Tested on: Frankliniella occidentalis (Western flower thrips)
- Test: Test Example 2: sprayed cucumber leaf, larvae of Frankliniella occidentalis set free, surviving pests counted
- Type: in vivo
- Condition notes: 500 ppm spray solution, 20 ml/cup, cucumber first true leaf, thirty larvae set free, after seven days
Readout label: number of surviving pests
Output spec: single numeric token, no unit.

• CC#CCOc1cc(OC(C)C(C)C)ncn1 (stereo not drawn) = 0

*Q* Which number of surviving pests value is on record for CC#CCOc1cc(OC(C)C(C)CC)ncn1 (stereo not drawn) ?
*A* 0

*Q* Which number of surviving pests value is on record for `CC#CCOc1cc(OCCC(C)(C)C)ncn1` ?
*A* 0

*Q* Which number of surviving pests value is on record for CCC#CCOc1cc(OC(C)C(C)(C)F)ncn1 (stereo not drawn) ?
*A* 0

*Q* Which number of surviving pests value is on record for `CC#CCOc1cc(OCC(C)(C)C)ncn1` ?
*A* 0

*Q* Which number of surviving pests value is on record for CC#CCOc1cc(OC(C)CC(C)(C)C)ncn1 (stereo not drawn) ?
*A* 0
